FYI, the data here is from ChEMBL document CHEMBL1147545.

assay target: Monoamine transporters; serotonin & dopamine (Homo sapiens) (UniProt P31645+Q01959)
assay comment: Binding selectivity ratio at human serotonin transporter versus dopamine transporter (hSERT/hDAT)
Assay type: protein assay
Simple rule here: Selectivity ratio less than 1 is true (1), otherwise false (0).

- compound: "COC(=O)C1C(c2cccc(-c3ccccc3)c2)CC2CCC1N2C (stereo not given)"
  classification: "true (1)"
- compound: "COC(=O)C1C(c2cccc(I)c2)CC2CCC1N2C (stereo not given)"
  classification: "false (0)"
- compound: "COC(=O)C1C2CCC(CC1c1cccc(I)c1)N2 (stereo not given)"
  classification: "false (0)"
- compound: "COC(=O)C1C(c2cccc(-c3ccsc3)c2)CC2CCC1N2C (stereo not given)"
  classification: "true (1)"

====

assay target: Sodium-dependent serotonin transporter (Homo sapiens)
Sequence (P31645 whole entry): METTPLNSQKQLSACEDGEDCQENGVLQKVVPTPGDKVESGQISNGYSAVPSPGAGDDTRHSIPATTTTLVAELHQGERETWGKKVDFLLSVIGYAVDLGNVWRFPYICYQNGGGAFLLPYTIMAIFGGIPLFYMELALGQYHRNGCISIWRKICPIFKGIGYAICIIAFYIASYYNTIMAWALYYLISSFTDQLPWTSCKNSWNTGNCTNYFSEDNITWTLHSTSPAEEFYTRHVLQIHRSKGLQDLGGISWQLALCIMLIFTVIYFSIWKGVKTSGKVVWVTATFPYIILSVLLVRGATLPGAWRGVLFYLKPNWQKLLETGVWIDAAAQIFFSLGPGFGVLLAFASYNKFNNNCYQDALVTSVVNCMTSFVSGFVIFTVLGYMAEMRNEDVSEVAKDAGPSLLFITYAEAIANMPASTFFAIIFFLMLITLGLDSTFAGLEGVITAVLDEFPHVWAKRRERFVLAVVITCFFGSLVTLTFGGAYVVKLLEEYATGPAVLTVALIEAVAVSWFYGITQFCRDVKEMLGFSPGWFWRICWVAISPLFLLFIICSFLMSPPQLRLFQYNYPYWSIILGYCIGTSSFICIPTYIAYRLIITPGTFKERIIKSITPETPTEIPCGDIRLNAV
assay comment: Binding affinity to serotonin transporter (SERT) in membranes of cells selectively expressing the human genes for SERT
pKi: −log10 of the molar value.

- compound: "COC(=O)C1C(c2cccc(-c3ccccc3)c2)CC2CCC1N2C (stereo not given)"
  assay target: "Sodium-dependent serotonin transporter (Homo sapiens)"
  pKi: 7.41
- compound: "COC(=O)C1C(c2cccc(-c3ccco3)c2)CC2CCC1N2C (stereo not given)"
  assay target: "Sodium-dependent serotonin transporter (Homo sapiens)"
  pKi: 7.26
- compound: "COC(=O)C1C(c2cccc(I)c2)CC2CCC1N2C (stereo not given)"
  assay target: "Sodium-dependent serotonin transporter (Homo sapiens)"
  pKi: 8.02
- compound: "COC(=O)C1C2CCC(CC1c1cccc(I)c1)N2 (stereo not given)"
  assay target: "Sodium-dependent serotonin transporter (Homo sapiens)"
  pKi: 8.91
- compound: "COC(=O)C1C(c2cccc(-c3ccsc3)c2)CC2CCC1N2C (stereo not given)"
  assay target: "Sodium-dependent serotonin transporter (Homo sapiens)"
  pKi: 7.13

====

assay target: Sodium-dependent dopamine transporter (Homo sapiens, UniProt Q01959)
Sequence (Q01959 whole entry): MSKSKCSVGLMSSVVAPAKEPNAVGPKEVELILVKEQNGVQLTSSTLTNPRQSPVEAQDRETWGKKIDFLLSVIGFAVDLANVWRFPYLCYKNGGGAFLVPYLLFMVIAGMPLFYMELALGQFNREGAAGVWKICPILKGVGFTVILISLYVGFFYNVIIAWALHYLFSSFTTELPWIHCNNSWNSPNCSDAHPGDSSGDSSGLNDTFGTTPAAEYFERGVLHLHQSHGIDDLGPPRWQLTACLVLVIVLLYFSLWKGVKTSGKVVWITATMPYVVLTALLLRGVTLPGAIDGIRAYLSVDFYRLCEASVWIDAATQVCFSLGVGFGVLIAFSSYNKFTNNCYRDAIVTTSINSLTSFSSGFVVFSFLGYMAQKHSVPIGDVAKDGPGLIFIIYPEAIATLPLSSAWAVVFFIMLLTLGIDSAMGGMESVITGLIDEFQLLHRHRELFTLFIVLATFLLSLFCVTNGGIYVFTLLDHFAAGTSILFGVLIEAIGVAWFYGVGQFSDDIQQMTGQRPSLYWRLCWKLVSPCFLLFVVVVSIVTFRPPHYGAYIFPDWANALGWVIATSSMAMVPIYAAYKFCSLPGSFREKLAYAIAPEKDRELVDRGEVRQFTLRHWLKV
assay comment: Binding affinity to dopamine transporter in membranes of cells selectively expressing the human genes for DAT
Reported log10 of Ki is given for each of the following compounds.
outcome measure: log10 of Ki (log10 of the value in nM)

- compound: "COC(=O)C1C2CCC(CC1c1cccc(I)c1)N2 (stereo not given)"
  log10 of Ki: 2.64
- compound: "COC(=O)C1C(c2cccc(-c3ccco3)c2)CC2CCC1N2C (stereo not given)"
  log10 of Ki: 1.73
- compound: "COC(=O)C1C(c2cccc(-c3ccsc3)c2)CC2CCC1N2C (stereo not given)"
  log10 of Ki: 1.47
- compound: "COC(=O)C1C(c2cccc(I)c2)CC2CCC1N2C (stereo not given)"
  log10 of Ki: 2.26
- compound: "COC(=O)C1C(c2cccc(-c3ccccc3)c2)CC2CCC1N2C (stereo not given)"
  log10 of Ki: 0.95

====

assay target: Sodium-dependent noradrenaline transporter (Homo sapiens, UniProt P23975)
Sequence (P23975 whole entry): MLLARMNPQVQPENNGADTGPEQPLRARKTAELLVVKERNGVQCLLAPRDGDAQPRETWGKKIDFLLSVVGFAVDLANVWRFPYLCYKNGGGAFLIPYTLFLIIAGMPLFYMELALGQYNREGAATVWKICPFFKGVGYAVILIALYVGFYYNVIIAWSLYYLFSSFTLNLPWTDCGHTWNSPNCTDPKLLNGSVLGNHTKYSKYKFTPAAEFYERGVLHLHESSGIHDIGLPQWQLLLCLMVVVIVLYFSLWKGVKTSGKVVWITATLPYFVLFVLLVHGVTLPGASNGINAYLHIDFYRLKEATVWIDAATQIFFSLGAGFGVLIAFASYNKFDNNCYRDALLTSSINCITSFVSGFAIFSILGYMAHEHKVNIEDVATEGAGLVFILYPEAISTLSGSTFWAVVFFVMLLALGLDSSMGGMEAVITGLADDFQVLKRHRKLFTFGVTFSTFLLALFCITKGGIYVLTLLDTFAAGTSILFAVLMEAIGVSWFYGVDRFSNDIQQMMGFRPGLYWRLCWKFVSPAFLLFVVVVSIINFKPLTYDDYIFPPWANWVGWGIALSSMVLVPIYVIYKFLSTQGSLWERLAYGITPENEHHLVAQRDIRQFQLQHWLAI
assay comment: Binding affinity to norepinephrine (NE) transporter in membranes of cells selectively expressing the human genes for NET
pKi: −log10 of the molar value.

- molecule: "COC(=O)[C@@H]1C2CC[C@H](C[C@@H]1c1ccc(I)cc1)N2C"
  reading qualifier: "="
  pKi: 7.95
- molecule: "COC(=O)C1C(c2cccc(-c3ccsc3)c2)CC2CCC1N2C (stereo unspecified)"
  reading qualifier: "<"
  pKi: 4.70
- molecule: "COC(=O)C1C(c2cccc(-c3ccccc3)c2)CC2CCC1N2C (stereo unspecified)"
  reading qualifier: "="
  pKi: 5.87
- molecule: "COC(=O)C1C(c2cccc(-c3ccco3)c2)CC2CCC1N2C (stereo unspecified)"
  reading qualifier: "="
  pKi: 5.52
- molecule: "COC(=O)C1C2CCC(CC1c1cccc(I)c1)N2 (stereo unspecified)"
  reading qualifier: "="
  pKi: 6.93
- molecule: "COC(=O)C1C(c2cccc(I)c2)CC2CCC1N2C (stereo unspecified)"
  reading qualifier: "="
  pKi: 5.98

====

assay target: Norepinephrine transporter (Rattus norvegicus)
Sequence (Q9WTR4 whole entry): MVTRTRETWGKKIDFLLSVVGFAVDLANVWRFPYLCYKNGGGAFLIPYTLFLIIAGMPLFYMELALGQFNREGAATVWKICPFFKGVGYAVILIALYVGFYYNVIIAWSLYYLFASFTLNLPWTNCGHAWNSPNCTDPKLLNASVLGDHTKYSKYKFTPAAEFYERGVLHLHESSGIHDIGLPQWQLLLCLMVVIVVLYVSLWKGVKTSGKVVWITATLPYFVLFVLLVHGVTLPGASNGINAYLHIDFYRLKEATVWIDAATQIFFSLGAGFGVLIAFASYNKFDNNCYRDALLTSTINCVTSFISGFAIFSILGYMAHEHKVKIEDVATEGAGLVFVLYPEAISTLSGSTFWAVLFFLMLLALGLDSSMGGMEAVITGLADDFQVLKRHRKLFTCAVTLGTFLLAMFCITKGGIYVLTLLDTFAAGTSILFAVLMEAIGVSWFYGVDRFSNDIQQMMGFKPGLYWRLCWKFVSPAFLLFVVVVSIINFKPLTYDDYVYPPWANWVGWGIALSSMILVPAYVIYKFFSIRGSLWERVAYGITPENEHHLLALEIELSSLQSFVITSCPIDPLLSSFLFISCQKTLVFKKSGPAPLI
assay comment: Binding affinity to norepinephrine (NE) transporter in rat forebrain tissue
Type: tissue-based
Reported Ki is given for each of the following molecules.

- molecule: "COC(=O)C1C(c2cccc(-c3ccco3)c2)CC2CCC1N2C (stereo not given)"
  assay target: "Norepinephrine transporter (Rattus norvegicus)"
  Ki: "10 µM"
- molecule: "COC(=O)C1C(c2cccc(-c3ccsc3)c2)CC2CCC1N2C (stereo not given)"
  assay target: "Norepinephrine transporter (Rattus norvegicus)"
  Ki: "> 10 µM"
- molecule: "COC(=O)C1C(c2cccc(I)c2)CC2CCC1N2C (stereo not given)"
  assay target: "Norepinephrine transporter (Rattus norvegicus)"
  Ki: "> 10 µM"
- molecule: "COC(=O)C1C(c2cccc(-c3ccccc3)c2)CC2CCC1N2C (stereo not given)"
  assay target: "Norepinephrine transporter (Rattus norvegicus)"
  Ki: "> 10 µM"
- molecule: "COC(=O)C1C2CCC(CC1c1cccc(I)c1)N2 (stereo not given)"
  assay target: "Norepinephrine transporter (Rattus norvegicus)"
  Ki: "0.282 µM"

====

Listed here: compounds with reported log10 of Ki for Sodium-dependent serotonin transporter (Rattus norvegicus).
outcome measure: log10 of Ki (log10 of the value in nM)

- compound: "COC(=O)C1C(c2cccc(-c3ccco3)c2)CC2CCC1N2C (configuration not stated)"
  assay target: "Sodium-dependent serotonin transporter (Rattus norvegicus)"
  log10 of Ki: 1.62
- compound: "COC(=O)C1C(c2cccc(-c3ccsc3)c2)CC2CCC1N2C (configuration not stated)"
  assay target: "Sodium-dependent serotonin transporter (Rattus norvegicus)"
  log10 of Ki: 1.92
- compound: "COC(=O)C1C2CCC(CC1c1cccc(I)c1)N2 (configuration not stated)"
  assay target: "Sodium-dependent serotonin transporter (Rattus norvegicus)"
  log10 of Ki: 0.13
- compound: "COC(=O)[C@@H]1C2CC[C@H](C[C@@H]1c1ccc(I)cc1)N2C"
  assay target: "Sodium-dependent serotonin transporter (Rattus norvegicus)"
  log10 of Ki: -0.39
- compound: "COC(=O)C1C2CCC(CC1c1ccc(I)cc1)N2 (configuration not stated)"
  assay target: "Sodium-dependent serotonin transporter (Rattus norvegicus)"
  log10 of Ki: -1.21
- compound: "COC(=O)C1C(c2cccc(-c3ccccc3)c2)CC2CCC1N2C (configuration not stated)"
  assay target: "Sodium-dependent serotonin transporter (Rattus norvegicus)"
  log10 of Ki: 1.55
- compound: "COC(=O)C1C(c2cccc(I)c2)CC2CCC1N2C (configuration not stated)"
  assay target: "Sodium-dependent serotonin transporter (Rattus norvegicus)"
  log10 of Ki: 0.99

====

assay target: Sodium-dependent dopamine transporter (Rattus norvegicus)
Sequence (P23977 whole entry): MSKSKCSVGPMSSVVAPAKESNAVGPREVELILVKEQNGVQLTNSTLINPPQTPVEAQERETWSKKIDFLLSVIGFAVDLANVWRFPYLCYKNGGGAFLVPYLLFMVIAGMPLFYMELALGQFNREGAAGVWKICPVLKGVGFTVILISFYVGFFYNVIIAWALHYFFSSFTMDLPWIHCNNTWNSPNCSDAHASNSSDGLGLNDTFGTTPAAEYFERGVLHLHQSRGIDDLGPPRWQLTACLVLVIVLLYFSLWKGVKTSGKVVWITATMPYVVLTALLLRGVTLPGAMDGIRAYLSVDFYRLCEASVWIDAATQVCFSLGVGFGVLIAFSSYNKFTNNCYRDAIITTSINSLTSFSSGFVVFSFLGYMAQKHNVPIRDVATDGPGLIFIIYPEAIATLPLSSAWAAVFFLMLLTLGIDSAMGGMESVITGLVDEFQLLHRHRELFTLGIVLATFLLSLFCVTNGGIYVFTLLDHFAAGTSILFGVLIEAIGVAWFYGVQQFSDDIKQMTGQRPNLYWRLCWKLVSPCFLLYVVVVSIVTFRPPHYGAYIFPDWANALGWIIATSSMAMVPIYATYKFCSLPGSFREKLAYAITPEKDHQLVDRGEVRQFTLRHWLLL
assay comment: Binding affinity to dopamine transporter (DAT) in rat forebrain tissue
Type: tissue-based
pKi: −log10 of the molar value.
outcome measure: pKi

- molecule: "COC(=O)C1C(c2cccc(-c3ccccc3)c2)CC2CCC1N2C (stereo not given)"
  measured result: 8.02
- molecule: "COC(=O)C1C(c2cccc(I)c2)CC2CCC1N2C (stereo not given)"
  measured result: 7.00
- molecule: "COC(=O)C1C(c2cccc(-c3ccsc3)c2)CC2CCC1N2C (stereo not given)"
  measured result: 7.63
- molecule: "COC(=O)C1C(c2cccc(-c3ccco3)c2)CC2CCC1N2C (stereo not given)"
  measured result: 7.51
- molecule: "COC(=O)C1C2CCC(CC1c1cccc(I)c1)N2 (stereo not given)"
  measured result: 7.67
